- Test system: LOX IMVI melanoma
- experimentDescription: NCI tumour cell line growth inhibition, 48 h
Here, each record is paired with measured GI50 data.

Solved cases (6 shown):
compound	GI50
COc1cc(NS(C)(=O)=O)ccc1Nc1c2ccc([N+](=O)[O-])cc2nc2c(C)cccc12	0.15 µM
O=C1C(Cl)=C(Nc2cccc(Cl)c2)C(=O)N1Cc1ccccc1	4.01 µM
CCN(CC)CCOCC[C@H]1CC[C@H]2[C@@H]3[C@H](C)Cc4cc(OS(N)(=O)=O)ccc4[C@H]3CC[C@]12C	1.33 µM
COc1ccc2oc(=O)cc(C(c3ccc[nH]3)c3ccc[nH]3)c2c1	0.104 µM
C=C1C(=O)O[C@H]2[C@H]1CC/C(CNC(=O)Cc1c[nH]c3ccccc13)=C\CC[C@@]1(C)O[C@@H]21	0.355 µM
COc1cc2c3c(n(CCCN)c(=O)c2cc1OC)-c1ccccc1C3=O	0.125 µM

Now take the following compound into account.
The reported GI50 value, LOX IMVI melanoma, for NCCNc1c2c(c(NCCN)c3c(CO)c[nH]c13)C(=O)c1ccccc1C2=O reads 8.32 µM

###

- Test system: TK-10 renal
- experimentDescription: NCI tumour cell line growth inhibition, 48 h
testReadout: GI50

The following compounds have reported results that may help.
compound	measurement
Nc1c(C(=O)c2cccc(CCCN3CCOCC3)c2)cnn1-c1ccc(F)cc1	> 25 µM
COc1cc(NS(C)(=O)=O)ccc1Nc1c2ccc([N+](=O)[O-])cc2nc2c(C)cccc12	2.07 µM
CCS(=O)(=O)N1CCC(C(C)n2c(C)c(C(=O)NCc3c(OC)cc(C)[nH]c3=O)c3ccccc32)CC1 (stereo not given)	> 100 µM
CCSCC1CC(O)(c2ccccc2)C(c2ccccc2)C(c2ccc(Cl)cc2)O1 (stereo not given)	2.27 µM

Next:
F has a reported GI50 of 3400 µM

###

- Tested on: K-562 leukemia
- experimentDescription: NCI tumour cell line growth inhibition, 48 h; in the data active means GI50 below about 0.43 µM; inactive means the rest
// one of active, inactive, no free text

compoundStructureString	assignedCategory
Nc1c(C(=O)c2cccc(CCCN3CCOCC3)c2)cnn1-c1ccc(F)cc1	inactive
CCCCON(OC(=O)c1ccccc1)C(=O)c1ccccc1	inactive
C=C1C(=O)O[C@H]2[C@H]1CC/C(CNC(=O)Cc1c[nH]c3ccccc13)=C\CC[C@@]1(C)O[C@@H]21	active
FC(F)(F)Oc1cccc(-c2cnc3ccc(-c4ccncc4)nn23)c1	inactive
FC(F)(F)c1nc(N2CCCC2)ncc1-c1nnnn1-c1ccc(Cl)cc1	inactive

q: How did this test come out for O=C1C(Cl)=C(Nc2cccc(Cl)c2)C(=O)N1Cc1ccccc1 ?
a: inactive

q: Field: outcome | Entry: F
a: inactive

q: Which outcome was assigned to CC1(C)N=C(N)N=C(N)N1c1cccc(CCCCc2cccc(S(=O)(=O)F)c2)c1 in this test?
a: inactive

q: I would be grateful if you could indicate the recorded call for COc1ccccc1NC(=O)c1sc2nc3c(cc2c1N)C(=O)CCC3 .
a: inactive

q: Test call for this compound, please: COc1cc2c(cc1O)CC[C@@H]1[C@@H]2CC[C@]2(C)[C@@H](NCCN(C)C)CC[C@@H]12
a: active

###

- System: SK-OV-3 ovarian
- experimentDescription: NCI tumour cell line growth inhibition, 48 h
Here, each record is paired with measured GI50 data.

Example entries begin here.
compound	testReadout	measurement
COc1cc(C(=O)/C=C/c2c(C)n([O-])c3ccc(C)cc3[n+]2=O)cc(OC)c1OC	GI50	32.7 µM
C=C1C(=O)O[C@H]2[C@H]1CC/C(CNC(=O)Cc1c[nH]c3ccccc13)=C\CC[C@@]1(C)O[C@@H]21	GI50	17.6 µM
CCS(=O)(=O)N1CCC(C(C)n2c(C)c(C(=O)NCc3c(OC)cc(C)[nH]c3=O)c3ccccc32)CC1 (centres undefined)	GI50	> 100 µM

In plain terms, O=C(NC1CCN(Cc2ccccc2)CC1)c1cc(-c2ccncc2)nc2ccc(Cl)cc12 has a documented GI50 of 23.3 µM

###

- System: SNB-19 CNS
- experimentDescription: NCI tumour cell line growth inhibition, 48 h
Some compounds, each annotated with its measured GI50.

Examples from the recorded data:
compound	GI50
COc1cc2c3c(n(CCCN)c(=O)c2cc1OC)-c1ccccc1C3=O	2.95 µM
CCN(CC)CCOCC[C@H]1CC[C@H]2[C@@H]3[C@H](C)Cc4cc(OS(N)(=O)=O)ccc4[C@H]3CC[C@]12C	1.71 µM
N=C(N)c1ccc(OCc2cccc(COc3ccc(C(=N)N)cc3)c2)cc1	5.75 µM
CC(=O)OC1C(C)OC(Oc2c(C)c3c4c(c2O)[C@@H](C)CC[C@@H]4[C@@H](C)C[C@H]3C=C(C)C)C(O)C1O (some centres undefined)	3.41 µM
COC(=O)CCC(=O)C(=O)OC	34200 µM

GI50 for Cc1cccc(NC(=O)CCc2ccc(N3C(N)=NC(N)=NC3(C)C)cc2)c1 is 8.35 µM

Lab book: GI50 of Clc1ccc(CSC(Cn2ccnc2)c2ccc(Cl)cc2Cl)cc1 (centres undefined) noted as 1.52 µM

Lookup result for Cn1cc(-c2ccc3c(Nc4cccc(NC(=O)Nc5cccc(F)c5)c4)ncnc3c2)cn1 ; measured GI50: 3.16 µM

GI50 in this record for C=C1C(=O)O[C@H]2[C@H]1CC/C(CNC(=O)Cc1c[nH]c3ccccc13)=C\CC[C@@]1(C)O[C@@H]21 : 15 µM

###

- Tested on: SF-295 CNS
- experimentDescription: NCI tumour cell line growth inhibition, 48 h; in the data active = GI50 below about 0.43 µM; inactive = the rest
Field 'call' accepts YES (active), NO (inactive)

Solved entries:
compound	assignedCategory
CCCCC[C@H](O)/C=C/[C@@H]1[C@@H](C/C=C\CCCC(=O)O)[C@@H](O)C[C@H]1O	NO
FC(F)(F)c1nc(N2CCCC2)ncc1-c1nnnn1-c1ccc(Cl)cc1	NO
O=C1c2ccccc2-c2c1c1ccccc1c(=O)n2CCCCNCCCn1c2c(c3ccccc3c1=O)C(=O)c1ccccc1-2	YES
CCSCC1CC(O)(c2ccccc2)C(c2ccccc2)C(c2ccc(Cl)cc2)O1 (centres undefined)	NO
CC(=O)N[C@@H](Cc1ccc(OP(=O)(O)O)cc1)C(=O)N[C@H]1CCC(=O)N2CCC[C@@H](C(=O)NCc3ccc(Cl)cc3)N2C1=O	NO
CCCCON(OC(=O)c1ccccc1)C(=O)c1ccccc1	NO

q: Could you check what this test reported for COC(=O)CCC(=O)C(=O)OC ?
a: NO

q: What is the recorded call for this compound in the test? C=CC[n+]1c(/C=C/C=C2\N(C)c3ccccc3C2(C)C)sc2ccc(OC)cc21
a: YES

q: Please state the recorded outcome for this compound: CCS(=O)(=O)N1CCC(C(C)n2c(C)c(C(=O)NCc3c(OC)cc(C)[nH]c3=O)c3ccccc32)CC1 (centres undefined)
a: NO

###

- Test system: SNB-75 CNS
- experimentDescription: NCI tumour cell line growth inhibition, 48 h; in the data active = GI50 below about 0.43 µM; inactive = the rest
API: response.call in 1 (yes) for active, 0 (no) for inactive

compound	testedTarget	assignedCategory
COc1cc(C(=O)/C=C/c2c(C)n([O-])c3ccc(C)cc3[n+]2=O)cc(OC)c1OC	SNB-75 CNS	0 (no)
Nc1c(C(=O)c2cccc(CCCN3CCOCC3)c2)cnn1-c1ccc(F)cc1	SNB-75 CNS	0 (no)
Cc1ccc([N+](=O)[O-])cc1NC(=O)Nc1cccc(F)c1	SNB-75 CNS	0 (no)
FC(F)(F)c1nc(N2CCCC2)ncc1-c1nnnn1-c1ccc(Cl)cc1	SNB-75 CNS	0 (no)
Cc1ccc2c(c1)C(C)Cc1c(ncnc1-n1cnc3ccccc31)N2C (stereo not given)	SNB-75 CNS	1 (yes)

q: Hi team, can someone confirm the assay call for O=C(NC1CCN(Cc2ccccc2)CC1)c1cc(-c2ccncc2)nc2ccc(Cl)cc12 ?
a: 0 (no)

###

- System: COLO 205 colon
- experimentDescription: NCI tumour cell line growth inhibition, 48 h; in the data active = GI50 below about 0.43 µM; inactive = the rest
The reply should name one outcome from active, inactive

Please review the following examples before continuing.
compound	assignedCategory
C=C1C(=O)O[C@H]2[C@H]1CC/C(CNC(=O)Cc1c[nH]c3ccccc13)=C\CC[C@@]1(C)O[C@@H]21	active
Cc1cccc(NC(=O)CCc2ccc(N3C(N)=NC(N)=NC3(C)C)cc2)c1	inactive
CC(=O)OC1C(C)OC(Oc2c(C)c3c4c(c2O)[C@@H](C)CC[C@@H]4[C@@H](C)C[C@H]3C=C(C)C)C(O)C1O (some centres not stated)	inactive
CC[C@]1(O)C[C@H]2CN(CCc3c([nH]c4ccccc34)[C@@](C(=O)OC)(c3cc4c(cc3OC)N(C=O)[C@H]3[C@@](O)(C(=O)OC)[C@H](OC(C)=O)[C@]5(CC)C=CCN6CC[C@]43[C@@H]65)C2)C1	active
CCS(=O)(=O)N1CCC(C(C)n2c(C)c(C(=O)NCc3c(OC)cc(C)[nH]c3=O)c3ccccc32)CC1 (configuration not stated)	inactive
COc1ccc(-c2cc(-c3cc(Cl)ccc3Cl)nc3n[nH]c(N)c23)cc1	inactive

Please examine the following record next.
q: Can you look up the reported call for O=C1c2ccccc2-c2c1c1ccccc1c(=O)n2CCCCNCCCn1c2c(c3ccccc3c1=O)C(=O)c1ccccc1-2 for me?
a: inactive
